target: Steroidogenic factor 1 (Homo sapiens); experiment: inhibitors of human SF-1, primary screen, cell-based, CHO-K1, Gal4-SF-1 LBD, luciferase luminescence (AID 525); settings: CHO-K1 Gal4-SF-1 LBD luciferase reporter; at 10 µM; stronger effect = higher value;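 further: 0% = SF-1 transfected cells with DMSO and 100% = mock-transfected cells lacking SF-1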
In all, about 65,000 compounds went through this assay and about 360 (0.55%) were called active. Many of the other results were omitted from the sample, so actives are more common in it than they were.
observed property: inhibition (%)

1. CCN(c1ccccc1)S(=O)(=O)c1ccc(N)cc1	-8.5
2. CN(Cc1ccccc1)Cc1ccccc1F	9.2
3. COc1cccc(N(CC(=O)NC2CCCC2)C(=O)Cn2nnc(-c3ccc(C)cc3)n2)c1	-13.3
4. O=C(NCc1ccco1)c1cc2sccc2n1Cc1ccc(F)cc1	11
5. COc1ccc(Nc2cc(C)nc(-n3nc(C)cc3C)n2)cc1	53.7
6. Fc1ccc2[nH]c3c(N4CCSCC4)ncnc3c2c1	58.1
7. CC1CN(C2CCCCC2)c2nc3c(c(=O)n(C)c(=O)n3C)n2C1 (configuration not stated)	-1.7
8. OCCCNC(c1ccccc1)c1ccc(O)cc1 (configuration not stated)	-6.6
9. O=C(NCc1ccccn1)Nc1ccc(F)cc1	-14.7
10. CCC(=O)Nc1ccc2c(c1)nc(CCN1CCN(C)CC1)n2C	2.6
11. CCOC(=O)c1c(C(C#N)C#N)cc(C)nc1C	-2.3
12. CCOC(=O)N1CCC(Nc2c(NCCN3CCN(c4cccc(Cl)c4)CC3)c(=O)c2=O)CC1	-1.7

---

biological target: Steroidogenic factor 1 (Homo sapiens); test: inhibitors of human SF-1, primary screen, cell-based, CHO-K1, Gal4-SF-1 LBD, luciferase luminescence (AID 525); details: CHO-K1 Gal4-SF-1 LBD luciferase reporter; at 10 µM; stronger effect = higher value;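 further: 0% = SF-1 transfected cells with DMSO and 100% = mock-transfected cells lacking SF-1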
The campaign covered roughly 65,000 compounds. About 360 (0.55%) were called active. For the sample, actives were picked, then their nearest neighbours and some compounds at random.
// inhibition lookup, one value per entry
observed property: inhibition (%)

1. O=C(CCS(=O)(=O)c1ccccc1)Nc1nc2c(s1)CCCC2	-3.7
2. O=C(c1cnn2ccccc12)N1CCc2ccccc21	-111
3. CCOc1cc(C(=S)N2CCOCC2)ccc1O	3.9
4. COC(=O)c1ccc(NCC(=O)c2ccccc2)cc1	-68.7
5. O=C(Nc1ccc(Cl)cc1)c1ccsn1	-73.5
6. Cc1cc(NC(=O)CCC(=O)N(c2ccccc2)C(C(=O)NC2CCCC2)c2ccncc2)no1 (configuration not stated)	-9.4
7. N/C(=N\c1nc2ccccc2o1)NC(=O)C(Cc1ccccc1)N1C(=O)c2ccccc2C1=O (configuration not stated)	0.7
8. Cc1cc(NC(=O)c2cc(-c3cccs3)on2)nn1Cc1ccc(Cl)cc1	2.7
9. CCCOC(=O)Nc1ccccc1C(N)=O	-2.2
10. Nc1ncc(-c2cc3ccccc3oc2=O)s1	-79.3
11. CCCC(CCC(=O)OC)(C(=O)OCC)c1csc(N)n1 (configuration not stated)	-13.3
12. COc1ccccc1N1CC(O)=C(c2nc3ccccc3s2)C1=N	-13.3
13. COc1cc2cc(CN(CCN3CCCC3)C(=O)Nc3ccccc3Cl)c(=O)[nH]c2cc1OC	8.5
14. Cc1cc(C)c(NC(=O)CS(=O)CC(=O)Nc2cccnc2)c(C)c1 (configuration not stated)	2.2
15. CCOc1cc(S(=O)(=O)NC2CC(C)(C)NC(C)(C)C2)ccc1F	-4.6
16. Cn1nnc2cc(C(=O)NCCC3=CCCCC3)ccc21	-49.9
17. COc1ccc(CCN2CNc3c(c(=O)n(C)c(=O)n3C)C2)cc1OC	-1.5
18. CCNC(=O)CCc1nc(-c2ccc(C(C)(C)C)cc2)no1	86.4
19. Cc1[nH]c2ccc(S(N)(=O)=O)cc2c1C	-22.2
20. CC(C)(CNCC(O)c1ccccc1)N1CCOCC1 (configuration not stated)	-12.6
21. Cc1ccc(N2C(=O)c3ccccc3C2(O)c2ncc[nH]2)cc1 (configuration not stated)	-6.1
22. O=C(NCc1cn2ccsc2n1)Nc1ccc(Cl)cc1	1.7
23. COc1cccc(CN2C(=O)CCC2(C)C(=O)NC2CCCCCC2)c1 (configuration not stated)	-6.9
24. CC(C)Cc1cc(C(=O)NCCc2ccccc2)no1	-80.7
25. COc1ccc(OC)c(Nc2nc(-c3ccc(O)c(O)c3)cs2)c1	85.3
26. Cn1c(=O)c2cn(-c3cccc4ccccc34)cc2n(C)c1=O	-21.5
27. CCOC(=O)N1CCN(C(=O)C2CCCN(c3ncnc4c3sc3cccc(F)c34)C2)CC1 (configuration not stated)	2.8
28. CCCCCCOC(=O)NCC(O)c1ccccc1 (configuration not stated)	-52.5
29. C/C(=C\c1ccco1)C1Nc2cccc3cccc(c23)N1	1.5
30. CC(C)(C)NC(=O)Cn1nnc(-c2ccccc2Cl)n1	-50
31. Cc1csc(NC(=O)C2CCCN2C(=O)OCC(C)C)n1 (configuration not stated)	5.9
32. CCn1c(CSc2nncn2-c2ccc(OC)cc2)nc2cc(S(=O)(=O)N(C)C)ccc21	-10.1
33. CCOC(=O)c1ccc(-c2ccc(C(=O)Nc3cccnc3)o2)cc1	-51.3
34. COc1ccc(OC)c(CNC(=O)C2CCCN(c3nc4ccccc4o3)C2)c1 (configuration not stated)	9.1
35. COc1ccc(N2CCN(CCNC(=O)CCN3C(=O)COc4ccccc43)CC2)cc1	11.5
36. CC1CSc2nnc(CCc3ccccc3)n21 (configuration not stated)	3.6
37. COc1ccc(NC(=O)Nc2cccc3cccnc23)cc1	-65.5
38. Cc1ccc(OCC(=O)Nc2ccc(-c3nnc(-c4ccco4)o3)cc2)cc1	-65.5
39. Cc1noc(NS(=O)(=O)c2ccc(N3CC(O)=C(c4ccccc4)C3=N)cc2)c1C	10.1
40. COCc1cc(C)nc(SCC(=O)Nc2cccc(C)c2)c1C#N	2.8
41. CCOC(=O)N1CCN(CC(=O)Nc2cc(C)nn2-c2nc3ccccc3s2)CC1	-0.5
42. CCOc1cc(C(=O)N2CCc3cc(OC)c(OC)cc3C2)ccc1OC(F)F	77.3
43. COc1ccccc1NC(=O)CSc1nnc(Cc2cccn2C)n1-c1ccc(F)cc1	16.2
44. Cc1nnc(SCC(=O)N(C(C)C)C(C)C)nc1C	3.3
45. O=C(NCCc1ccc(Cl)cc1)C1CC(=O)N(C2CCCCC2)C1 (configuration not stated)	-13.3
46. CCOC(=O)CCC(=O)OCC(=O)NC(C)C1CC2CCC1C2 (configuration not stated)	0.5
47. COc1ccccc1Oc1ccc(S(=O)(=O)Nc2cccnc2)cc1	13.8
